Please provide measured Activity for the entries that follow.
test: Cell cycle arrest in human LS174 cells assessed as accumulation at S phase at IC50 after 24 hrs by propidium iodide staining-based flow cytometry (reference value: 15.86%); type: functional
Give bare numbers, in %.

Activity reported for this molecule O=C(/C=C/c1ccc(/C=N/Cc2ccccc2)cc1)c1cccc2c1C(=O)c1ccccc1C2=O : 20.2

Activity reported for this molecule O=C(/C=C/c1ccc(/C=N/Cc2ccco2)cc1)c1cccc2c1C(=O)c1ccccc1C2=O : 20.1

Activity reported for this molecule O=C(/C=C/c1ccc(/C=N/c2cccc(Cl)c2)cc1)c1cccc2c1C(=O)c1ccccc1C2=O : 2.79

Continuing:
Activity reported for this molecule O=C(/C=C/c1ccc(/C=N/c2cccc(C(F)(F)F)c2)cc1)c1cccc2c1C(=O)c1ccccc1C2=O : 15.1

###

Please provide measured Activity for the entries that follow.
assay: Cell cycle arrest in human LS174 cells assessed as accumulation at G2/M phase at IC50 after 24 hrs by propidium iodide staining-based flow cytometry (reference value: 20.92%); format: functional

Activity reported for this compound O=C(/C=C/c1ccc(/C=N/c2cccc(C(F)(F)F)c2)cc1)c1cccc2c1C(=O)c1ccccc1C2=O : 22.7%

Activity reported for this compound O=C(/C=C/c1ccc(/C=N/Cc2ccco2)cc1)c1cccc2c1C(=O)c1ccccc1C2=O : 16.9%

Activity reported for this compound O=C(/C=C/c1ccc(/C=N/Cc2ccccc2)cc1)c1cccc2c1C(=O)c1ccccc1C2=O : 15.2%

Okay, next one:
Activity reported for this compound O=C(/C=C/c1ccc(/C=N/c2cccc(Cl)c2)cc1)c1cccc2c1C(=O)c1ccccc1C2=O : 68.9%

###

test system: HeLa; test: Cell cycle arrest in human HeLa cells assessed as accumulation at G1 phase at IC50 after 24 hrs by propidium iodide staining-based flow cytometry (reference value: 60.85%); assay type: functional
OBSERVABLE: Activity (%)
Give bare numbers, in %.

Consider the reported Activity for these compounds:
Item O=C(/C=C/c1ccc(/C=N/c2cccc(C(F)(F)F)c2)cc1)c1cccc2c1C(=O)c1ccccc1C2=O ; assay system HeLa; Activity reported as 63.25

Item O=C(/C=C/c1ccc(/C=N/Cc2ccccc2)cc1)c1cccc2c1C(=O)c1ccccc1C2=O ; assay system HeLa; Activity reported as 58.07

Item O=C(/C=C/c1ccc(/C=N/c2cccc(Cl)c2)cc1)c1cccc2c1C(=O)c1ccccc1C2=O ; assay system HeLa; Activity reported as 61.28

Continuing:
Item O=C(/C=C/c1ccc(/C=N/Cc2ccco2)cc1)c1cccc2c1C(=O)c1ccccc1C2=O ; assay system HeLa; Activity reported as 63.69

###

test system: HeLa; assay: Cell cycle arrest in human HeLa cells assessed as accumulation at G2/M phase at IC50 after 24 hrs by propidium iodide staining-based flow cytometry (reference value: 22.67%); type: functional
Please provide measured Activity for the entries that follow.
One number for each entry, in %.

Activity reported for this molecule O=C(/C=C/c1ccc(/C=N/c2cccc(Cl)c2)cc1)c1cccc2c1C(=O)c1ccccc1C2=O : 20.05

Activity reported for this molecule O=C(/C=C/c1ccc(/C=N/c2cccc(C(F)(F)F)c2)cc1)c1cccc2c1C(=O)c1ccccc1C2=O : 18.07

Activity reported for this molecule O=C(/C=C/c1ccc(/C=N/Cc2ccccc2)cc1)c1cccc2c1C(=O)c1ccccc1C2=O : 17.3

Continuing:
Activity reported for this molecule O=C(/C=C/c1ccc(/C=N/Cc2ccco2)cc1)c1cccc2c1C(=O)c1ccccc1C2=O : 17.99
